biological target: Tyrosine-protein phosphatase non-receptor type 1 (Homo sapiens, UniProt P18031); test: Inhibition of recombinant PTP1B using para-nitrophenylphosphate as substrate by high throughput screening assay
Sequence (P18031 whole entry): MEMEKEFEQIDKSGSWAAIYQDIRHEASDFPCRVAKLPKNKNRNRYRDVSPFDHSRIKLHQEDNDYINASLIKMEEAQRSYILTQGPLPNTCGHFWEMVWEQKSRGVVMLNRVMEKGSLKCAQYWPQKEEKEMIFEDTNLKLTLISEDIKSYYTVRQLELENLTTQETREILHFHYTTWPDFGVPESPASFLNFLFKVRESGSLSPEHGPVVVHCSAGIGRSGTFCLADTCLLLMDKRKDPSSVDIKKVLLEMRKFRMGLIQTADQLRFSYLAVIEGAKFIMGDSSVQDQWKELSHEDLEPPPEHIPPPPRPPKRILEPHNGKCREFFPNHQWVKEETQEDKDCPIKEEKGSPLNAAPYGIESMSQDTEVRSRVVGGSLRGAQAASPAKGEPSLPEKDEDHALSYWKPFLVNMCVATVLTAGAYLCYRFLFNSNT
Hi there, I'd appreciate the recorded IC50 for every entry that follows.
One number for each entry, in µM.

substance_smiles=Cc1ccc2c(c1)C(=O)C(=O)N2Cc1ccc(/C=C2/C(=O)Nc3ccc(Br)cc32)o1 value_reported=5.23

Consider the following items and state reported IC50 for each.
1. O=C1Nc2ccc(Cl)cc2/C1=C\c1ccc(CN2C(=O)C(=O)c3cc(Cl)ccc32)o1
2. Cc1ccc2c(c1)C(=O)C(=O)N2Cc1ccc(/C=C2/C(=O)Nc3ccccc32)o1
3. O=C1Nc2ccc([N+](=O)[O-])cc2/C1=C\c1ccc(CN2C(=O)C(=O)c3ccccc32)o1
4. Cc1ccc2c(c1)/C(=C\c1ccc(CN3C(=O)C(=O)c4ccccc43)o1)C(=O)N2
5. Cc1ccc2c(c1)C(=O)C(=O)N2Cc1ccc(/C=C2/C(=O)Nc3ccc(Cl)cc32)o1

1: 2.3; 2: 6.71; 3: 5.35; 4: 9.82; 5: 3.46

Lab request: please report IC50 under test system Tyrosine-protein phosphatase non-receptor type 1 (Homo sapiens, UniProt P18031) for Cc1ccc2c(c1)/C(=C\c1ccc(CN3C(=O)C(=O)c4cc(Cl)ccc43)o1)C(=O)N2
3.37

====

molecular target: Tyrosine-protein phosphatase non-receptor type 1 (Homo sapiens, UniProt P18031); experiment: Inhibition of recombinant PTP1B using para-nitrophenylphosphate as substrate by high throughput screening assay
Endpoint label: IC50 (µM)
One number for each entry, in µM.

Some compounds with known IC50 results, for comparison:
substance_smiles=O=C1Nc2ccccc2/C1=C\c1ccc(CN2C(=O)C(=O)c3ccccc32)o1 value_reported=7.63
substance_smiles=O=C1Nc2ccc(Br)cc2/C1=C\c1ccc(CN2C(=O)C(=O)c3ccccc32)o1 value_reported=2.8
substance_smiles=Cc1ccc2c(c1)C(=O)C(=O)N2Cc1ccc(/C=C2/C(=O)Nc3ccc(C)cc32)o1 value_reported=5.7
substance_smiles=O=C1Nc2ccc(Cl)cc2/C1=C\c1ccc(CN2C(=O)C(=O)c3ccccc32)o1 value_reported=4.41

In the following, a different compound is considered.
Which value of IC50 has been reported for O=C1Nc2ccccc2/C1=C\c1ccc(CN2C(=O)C(=O)c3cc(Cl)ccc32)o1 in the records?
4.59

====

biological target: Tyrosine-protein phosphatase non-receptor type 6 (Homo sapiens)
Sequence (P29350 whole entry): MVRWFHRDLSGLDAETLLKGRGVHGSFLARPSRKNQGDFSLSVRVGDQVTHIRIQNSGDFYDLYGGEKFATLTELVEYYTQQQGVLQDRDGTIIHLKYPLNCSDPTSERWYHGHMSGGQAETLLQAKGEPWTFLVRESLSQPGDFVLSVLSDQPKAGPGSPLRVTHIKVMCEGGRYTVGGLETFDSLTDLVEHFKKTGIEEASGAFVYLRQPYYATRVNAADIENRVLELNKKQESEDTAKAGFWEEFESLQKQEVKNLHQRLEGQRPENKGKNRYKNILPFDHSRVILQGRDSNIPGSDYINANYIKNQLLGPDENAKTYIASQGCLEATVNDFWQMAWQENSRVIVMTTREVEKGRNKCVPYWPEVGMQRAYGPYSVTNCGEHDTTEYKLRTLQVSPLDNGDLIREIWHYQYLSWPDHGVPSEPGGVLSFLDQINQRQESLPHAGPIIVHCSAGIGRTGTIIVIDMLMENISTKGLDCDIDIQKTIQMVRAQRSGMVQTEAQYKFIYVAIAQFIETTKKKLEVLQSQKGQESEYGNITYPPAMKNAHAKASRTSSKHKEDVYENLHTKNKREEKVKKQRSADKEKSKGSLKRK
Endpoint label: IC50

// lookup IC50 for O=C1Nc2ccc(Cl)cc2/C1=C\c1ccc(CN2C(=O)C(=O)c3cc(Cl)ccc32)o1
> 100 µM

====

molecular target: Receptor-type tyrosine-protein phosphatase F (Homo sapiens)
Sequence (P10586 whole entry): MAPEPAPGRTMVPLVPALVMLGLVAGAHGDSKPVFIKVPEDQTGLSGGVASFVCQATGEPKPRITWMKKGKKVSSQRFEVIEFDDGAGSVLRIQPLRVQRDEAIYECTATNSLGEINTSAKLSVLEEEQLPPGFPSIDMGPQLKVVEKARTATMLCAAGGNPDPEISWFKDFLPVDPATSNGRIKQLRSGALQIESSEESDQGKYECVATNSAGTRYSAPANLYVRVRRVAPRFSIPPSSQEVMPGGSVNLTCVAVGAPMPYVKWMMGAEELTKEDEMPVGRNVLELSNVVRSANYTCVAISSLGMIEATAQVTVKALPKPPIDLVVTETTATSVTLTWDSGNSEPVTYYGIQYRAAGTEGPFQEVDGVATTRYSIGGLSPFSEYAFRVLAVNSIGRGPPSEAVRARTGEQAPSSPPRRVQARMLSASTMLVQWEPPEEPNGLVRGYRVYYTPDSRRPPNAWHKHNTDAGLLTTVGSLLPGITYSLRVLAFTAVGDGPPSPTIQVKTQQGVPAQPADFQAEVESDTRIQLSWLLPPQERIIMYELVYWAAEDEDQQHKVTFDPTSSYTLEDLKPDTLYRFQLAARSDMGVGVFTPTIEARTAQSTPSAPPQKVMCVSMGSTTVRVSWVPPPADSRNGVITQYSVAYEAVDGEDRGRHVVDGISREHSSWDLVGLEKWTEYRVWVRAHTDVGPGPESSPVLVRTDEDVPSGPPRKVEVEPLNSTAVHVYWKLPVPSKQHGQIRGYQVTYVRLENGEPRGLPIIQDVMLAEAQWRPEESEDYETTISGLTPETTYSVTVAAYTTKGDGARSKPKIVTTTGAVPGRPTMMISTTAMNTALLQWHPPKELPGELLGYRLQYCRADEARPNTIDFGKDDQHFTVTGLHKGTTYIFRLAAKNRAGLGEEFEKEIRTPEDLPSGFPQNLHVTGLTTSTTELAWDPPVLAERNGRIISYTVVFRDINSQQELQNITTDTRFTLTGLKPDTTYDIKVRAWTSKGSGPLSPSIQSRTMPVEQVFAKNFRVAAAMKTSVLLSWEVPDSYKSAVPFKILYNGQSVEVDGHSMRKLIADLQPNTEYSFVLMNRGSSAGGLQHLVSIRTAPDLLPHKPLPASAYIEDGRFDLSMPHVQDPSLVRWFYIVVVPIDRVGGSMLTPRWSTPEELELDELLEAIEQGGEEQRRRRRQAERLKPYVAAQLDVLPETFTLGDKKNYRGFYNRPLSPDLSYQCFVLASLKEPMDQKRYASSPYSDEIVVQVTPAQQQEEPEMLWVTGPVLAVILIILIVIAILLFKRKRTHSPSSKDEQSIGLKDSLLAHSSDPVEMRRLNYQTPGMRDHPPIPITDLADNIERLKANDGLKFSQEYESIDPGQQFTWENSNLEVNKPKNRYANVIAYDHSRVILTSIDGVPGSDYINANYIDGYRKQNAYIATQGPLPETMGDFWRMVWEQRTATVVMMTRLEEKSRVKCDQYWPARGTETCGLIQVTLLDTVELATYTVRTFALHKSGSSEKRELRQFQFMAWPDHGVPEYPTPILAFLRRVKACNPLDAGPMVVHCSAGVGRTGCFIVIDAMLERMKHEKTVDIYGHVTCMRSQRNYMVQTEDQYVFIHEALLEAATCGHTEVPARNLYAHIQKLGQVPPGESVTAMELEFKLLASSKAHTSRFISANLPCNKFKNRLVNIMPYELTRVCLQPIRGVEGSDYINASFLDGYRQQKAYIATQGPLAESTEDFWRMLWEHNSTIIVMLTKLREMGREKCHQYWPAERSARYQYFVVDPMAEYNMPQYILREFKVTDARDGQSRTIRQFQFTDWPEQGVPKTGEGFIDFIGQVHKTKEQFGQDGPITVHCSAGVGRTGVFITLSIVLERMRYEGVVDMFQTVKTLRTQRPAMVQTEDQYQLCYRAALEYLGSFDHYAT
Endpoint label: IC50

Fill in: IC50 of O=C1Nc2ccc(Br)cc2/C1=C\c1ccc(CN2C(=O)C(=O)c3ccccc32)o1 is ___
> 100 µM

====

target: Tyrosine-protein phosphatase non-receptor type 1 (Homo sapiens, UniProt P18031); experiment: Inhibition of recombinant PTP1B using para-nitrophenylphosphate as substrate by high throughput screening assay
Would you mind telling me the reported IC50 of each entry?

substance_smiles=Cc1ccc2c(c1)C(=O)C(=O)N2Cc1ccc(C=O)o1 endpoint_label=IC50 value_reported="> 60 µM"
substance_smiles=O=Cc1ccc(CN2C(=O)C(=O)c3ccccc32)o1 endpoint_label=IC50 value_reported="> 60 µM"

Proceeding to the next molecule to report its IC50.
Fill in the blank: the reported IC50 of O=Cc1ccc(CN2C(=O)C(=O)c3cc(Cl)ccc32)o1 is ____.
> 60 µM
